# target-entity: KDM4A-F185A (Homo sapiens, UniProt O75164, F185A)
# Construct: human KDM4A-jmjC domain (catalytic domain of KDM4A); 6xHis (N); host or cells: E. coli BL21 (DE3)
# Sequence (O75164 142-308 F185A limits assumed): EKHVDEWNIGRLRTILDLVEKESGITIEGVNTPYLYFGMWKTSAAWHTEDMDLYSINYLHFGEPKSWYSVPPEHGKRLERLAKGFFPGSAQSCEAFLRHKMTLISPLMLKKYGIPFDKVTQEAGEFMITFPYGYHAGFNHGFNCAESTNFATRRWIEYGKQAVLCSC
# method: Coupled fluorescence end-point assay for IC50
# Type: biochemical
# settings: time-dependent inhibition of F185A, 4 hour
readout: IC50 (µM)
One number for each entry, in µM.

API: value(readout= IC50, system= KDM4A-F185A (Homo sapiens, UniProt O75164, F185A), query= CC(C)CC(NC(=O)C(=O)O)C(=O)O (stereo not shown) [compound 6, N-oxalyl leucine] ) 1.8
